Where do the numbers come from? From ChEMBL document CHEMBL3046018.

Tested on: Chenopodium album
Assay: Herbicidal activity against Chenopodium album assessed as growth inhibition at 150 g ai/ha using post-emergence protocol under greenhouse conditions measured 15 days after compound treatment
Assay type: functional
Conditions: 360 h, read-out: GI
ENDPOINT: inhibition of growth at 150 g/ha

Known results for compounds:
CC(C)Oc1cc(N2CC3=C(CCCC3)C2=O)c(F)cc1Cl: > 80%
CCOC(=O)C(C)Oc1cc(N2C(=O)C3CCCCC3C2O)c(F)cc1Cl (stereo unspecified): < 50%

In plain terms, CC(C)Oc1cc(N2C(=O)C3CCCCC3C2O)c(F)cc1Cl (stereo unspecified) has a documented inhibition of growth at 150 g/ha of < 50%

// sample COc1cc(N2C(=O)C3=C(CCCC3)C2OC)c(F)cc1Cl (stereo unspecified) , its inhibition of growth at 150 g/ha was > 80%

Form: compound = C=CCOC1C2=C(CCCC2)C(=O)N1c1cc(OCc2cccc(Cl)c2)c(Cl)cc1F (stereo unspecified) ; inhibition of growth at 150 g/ha = < 50%

The compound identified as C=CCOc1cc(N2C(=O)C3=C(CCCC3)C2O)c(Cl)cc1Cl (stereo unspecified) registered its inhibition of growth at 150 g/ha at 50%

Lab note: CCOc1cc(N2CC3=C(CCCC3)C2=O)c(F)cc1Cl gave inhibition of growth at 150 g/ha of 100%

The measured inhibition of growth at 150 g/ha associated with CCOC(=O)COc1cc(N2C(=O)C3CCCCC3C2=O)c(F)cc1Cl (stereo unspecified) reads < 50%

The measured inhibition of growth at 150 g/ha associated with C=CCOc1cc(N2C(=O)C3=C(CCCC3)C2O)c(F)cc1Cl (stereo unspecified) reads > 80%

* * *

System: Brassica juncea
Test: Herbicidal activity against Brassica juncea assessed as growth inhibition at 150 g ai/ha using post-emergence protocol under greenhouse conditions measured 15 days after compound treatment
Assay type: functional
Conditions: 360 h, read-out: GI
Property: inhibition of growth at 150 g/ha; scope: individual molecules

// worked examples, inhibition of growth at 150 g/ha included
CCOc1cc(N2CC3=C(CCCC3)C2=O)c(F)cc1Cl: 50%
C=CCOc1cc(N2C(=O)C3=C(CCCC3)C2OCC=C)c(F)cc1Cl (stereo not drawn): 100%

Please look at the following molecule next.
Item: C=CCOC1C2=C(CCCC2)C(=O)N1c1cc(OCc2cccc(Cl)c2)c(Cl)cc1F (stereo not drawn) | inhibition of growth at 150 g/ha: < 50%

* * *

Target: Protoporphyrinogen oxidase (Homo sapiens)
Sequence (P50336 whole entry): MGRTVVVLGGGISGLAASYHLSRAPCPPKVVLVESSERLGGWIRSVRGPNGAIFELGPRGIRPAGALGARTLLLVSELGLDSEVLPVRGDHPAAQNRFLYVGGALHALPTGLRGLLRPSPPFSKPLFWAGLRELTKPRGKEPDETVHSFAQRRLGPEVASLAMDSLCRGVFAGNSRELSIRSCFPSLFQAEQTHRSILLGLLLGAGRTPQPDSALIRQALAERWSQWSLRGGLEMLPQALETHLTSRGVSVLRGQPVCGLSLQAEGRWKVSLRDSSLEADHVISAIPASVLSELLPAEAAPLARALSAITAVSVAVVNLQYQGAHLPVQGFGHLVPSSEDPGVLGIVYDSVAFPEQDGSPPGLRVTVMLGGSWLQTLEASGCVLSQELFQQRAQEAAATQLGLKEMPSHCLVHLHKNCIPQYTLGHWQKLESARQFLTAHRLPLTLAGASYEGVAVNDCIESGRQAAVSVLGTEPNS
Assay: Inhibition of Homo sapiens (human) protoporphyrinogen oxidase
Conditions: read-out: Ki
Parameter pKi: see the listing below.
# pKi: negative log10 of molar concentration; output just the value

Examples with their reported pKi follow.
O=C1C2CCCCC2C(O)N1c1cc(OC2CCCC2)c(Cl)cc1F (configuration not stated): 4.61
CC(C)Oc1cc(N2CC3=C(CCCC3)C2=O)c(F)cc1Cl: 6.16

pKi recorded for this molecule, CCOc1cc(N2CC3=C(CCCC3)C2=O)c(Cl)cc1Cl , is 6.17

Input CCOc1cc(N2CC3=C(CCCC3)C2=O)c(F)cc1Cl . Output pKi: 6.70

Record COc1cc(N2C(=O)C3CCCCC3C2=O)c(F)cc1Cl (configuration not stated) , field pKi: 5.09

Lab note: O=C1C2=C(CCCC2)C(O)N1c1cc(OCc2cccc(F)c2)c(Cl)cc1F (configuration not stated) gave pKi of 6.11

The molecule C#CCOc1cc(N2C(=O)C3CCCCC3C2O)c(F)cc1Cl (configuration not stated) showed pKi equal to 4.20

Given item CCOC(=O)C(C)Oc1cc(N2C(=O)C3CCCCC3C2O)c(F)cc1Cl (configuration not stated) , the value recorded as its pKi is 4.32

Reported pKi ( C=CCOc1cc(N2C(=O)C3=C(CCCC3)C2O)c(F)cc1Cl (configuration not stated) ) = 5.99

What the record says about O=C1C2=C(CCCC2)C(O)N1c1cc(OCc2cccc(Cl)c2)c(Cl)cc1F (configuration not stated) : pKi is 6.28

Entry under test: C=CCOc1cc(N2C(=O)C3=C(CCCC3)C2OCC=C)c(F)cc1Cl (configuration not stated) . Its pKi was 4.48

The value of pKi measured for the molecule COC1C2=C(CCCC2)C(=O)N1c1cc(OCc2cccc(Cl)c2)c(Cl)cc1F (configuration not stated) turned out to be 5.99

Entry under test: C=CCOc1cc(N2C(=O)C3CCCCC3C2O)c(F)cc1Cl (configuration not stated) . Its pKi was 4.35

Per the record, O=C1C2=C(CCCC2)C(O)N1c1cc(O)c(Br)cc1F (configuration not stated) has pKi of 4.71

Sample CCCOc1cc(N2CC3=C(CCCC3)C2=O)c(F)cc1Cl ; pKi observed: 7.02

Quick note, pKi for C=CCOC1C2=C(CCCC2)C(=O)N1c1cc(OCC)c(Cl)cc1F (configuration not stated) landed at 5.15

Notebook: O=C1NC(=O)c2cc(Cl)ccc21 [4-CHLORO-PHTHALIMIDE] , pKi read as 4.06

* * *

Listed here: items and their measured inhibition of growth at 150 g/ha.
Tested on: Amaranthus retroflexus
Assay: Herbicidal activity against Amaranthus retroflexus assessed as growth inhibition at 150 g ai/ha using post-emergence protocol under greenhouse conditions measured 15 days after compound treatment
Assay type: functional
Settings: 360 h, read-out: GI

O=C1C2=C(CCCC2)C(O)N1c1cc(OCc2cccc(F)c2)c(Cl)cc1F (stereo not given): > 80%
C=CCOc1cc(N2C(=O)C3CCCCC3C2O)c(F)cc1Cl (stereo not given): < 50%
O=C1C2CCCCC2C(O)N1c1cc(OC2CCCC2)c(Cl)cc1F (stereo not given): < 50%
Nc1cc(N2CC3=C(CCCC3)C2=O)ccc1Cl: < 50%
CCOC(=O)COc1cc(N2C(=O)C3CCCCC3C2=O)c(F)cc1Cl (stereo not given): < 50%

Next:
Entry CC(C)Oc1cc(N2C(=O)C3CCCCC3C2O)c(F)cc1Cl (stereo not given) — recorded inhibition of growth at 150 g/ha = < 50%

* * *

Tested on: Digitaria sanguinalis
Assay: Herbicidal activity against Digitaria sanguinalis (hairy crabgrass) assessed as growth inhibition at 150 g ai/ha using post-emergence protocol under greenhouse conditions measured 15 days after compound treatment
Type: functional
Conditions: 360 h, read-out: GI
Attribute: inhibition of growth at 150 g/ha

CC(C)Oc1cc(N2CC3=C(CCCC3)C2=O)c(F)cc1Cl: < 50%
CCOc1cc(Cl)c([N+](=O)[O-])cc1N1C(=O)C2=C(CCCC2)C1O (stereo not drawn): < 50%

Here is the next item to consider.
The compound identified as CCOC(=O)C(C)Oc1cc(N2C(=O)C3CCCCC3C2=O)c(F)cc1Cl (stereo not drawn) registered its inhibition of growth at 150 g/ha at < 50%

* * *

Tested on: Chenopodium album
Experiment: Herbicidal activity against Chenopodium album assessed as growth inhibition at 150 g ai/ha using post-emergence protocol under greenhouse conditions measured 15 days after compound treatment
Format: functional
Details: 360 h, read-out: GI
Each item that follows carries a reported inhibition of growth at 150 g/ha.

Consider the worked cases shown below.
COc1cc(N2C(=O)C3CCCCC3C2O)c(F)cc1Cl (configuration not stated): < 50%
O=C1C2=C(CCCC2)C(O)N1c1cc(OCc2cccc(Cl)c2)c(Cl)cc1F (configuration not stated): 50%
C#CCOc1cc(N2C(=O)C3CCCCC3C2O)c(F)cc1Cl (configuration not stated): < 50%
C=CCOC1C2=C(CCCC2)C(=O)N1c1cc(OCC)c(Cl)cc1F (configuration not stated): 100%
C=CCOc1cc(N2CC3=C(CCCC3)C2=O)c(F)cc1Cl: 100%

Hey, Chenopodium album data for CCCOc1cc(N2CC3=C(CCCC3)C2=O)c(Cl)cc1Cl : inhibition of growth at 150 g/ha came out at < 50%

For the compound COC1C2=C(CCCC2)C(=O)N1c1cc(OCc2cccc(Cl)c2)c(Cl)cc1F (configuration not stated) , the measured inhibition of growth at 150 g/ha on Chenopodium album was 50%

GET /values?item= O=C1C2=C(CCCC2)C(O)N1c1cc(O)c(Br)cc1F (configuration not stated) &system= Chenopodium album returns inhibition of growth at 150 g/ha: 50%

* * *

Consider the following compounds and their measured inhibition of growth at 150 g/ha readings.
System: Amaranthus retroflexus
Test: Herbicidal activity against Amaranthus retroflexus assessed as growth inhibition at 150 g ai/ha using post-emergence protocol under greenhouse conditions measured 15 days after compound treatment
Assay type: functional
Conditions: 360 h, read-out: GI

CCCOc1cc(N2CC3=C(CCCC3)C2=O)c(F)cc1Cl: > 80%
CCCOc1cc(N2CC3=C(CCCC3)C2=O)c(Cl)cc1Cl: > 80%
O=C1C2=C(CCCC2)C(O)N1c1cc(O)c(Br)cc1F (centres undefined): 50%
COc1cc(N2C(=O)C3=C(CCCC3)C2OC)c(F)cc1Cl (centres undefined): > 80%
C=CCOc1cc(N2C(=O)C3=C(CCCC3)C2O)c(Cl)cc1Cl (centres undefined): 50%
C=CCOC1C2=C(CCCC2)C(=O)N1c1cc(OCc2cccc(Cl)c2)c(Cl)cc1F (centres undefined): > 80%
Cc1nn(-c2cc(NS(C)(=O)=O)c(Cl)cc2Cl)c(=O)n1C(F)F: 100%
CCOc1cc(N2CC3=C(CCCC3)C2=O)c(F)cc1Cl: > 80%

Proceed to the following item.
# lookup: C=CCOc1cc(N2C(=O)C3=C(CCCC3)C2O)c(F)cc1Cl (centres undefined) on Amaranthus retroflexus, inhibition of growth at 150 g/ha = > 80%
